Source of measurements: the Human Domainome abundance scans (Beltran et al. 2025)

B1: Histone-lysine N-methyltransferase SETD2, residues 2382 to 2430; numbered along this chain, Q9BYW2 (parent)
chain: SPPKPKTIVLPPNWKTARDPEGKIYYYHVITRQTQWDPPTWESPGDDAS

Variants of: B1
method-summary: abundance fitness (aPCA) (normalised: wild type 0, dead -1); higher = more abundant; growth selection in yeast, the domain comes from the species named
test-conditions: Homo sapiens
Label criterion not met if abundance fitness falls below -0.07; label criterion met in every other case.

P12M = criterion met
W36L = criterion not met
Q35M = criterion not met

Q: For this variant, is measured abundance fitness -0.07 or higher? "I8P"
Ans: criterion not met

Q: Entry to check: "Y27C"
Ans: criterion not met

Q: Same for "K4I"
Ans: criterion not met

Q: Entry "I8C" please
Ans: criterion met

Q: Try this variant next: "W41D"
Ans: criterion met

Q: How about this variant: "N13W"
Ans: criterion not met

Q: Same question, "P11A" this time
Ans: criterion not met

Q: Then what about the variant "D37R" ?
Ans: criterion not met

Q: What do you have for "Y25D" ?
Ans: criterion not met

Q: Queued: "E42Q"
Ans: criterion not met

Q: Please give the result for "E42N" too.
Ans: criterion not met

Q: Try the variant "P2Q"
Ans: criterion met

Q: Please give the result for "A48G" too.
Ans: criterion met

Q: Query "K23N" next
Ans: criterion not met

Q: What would you report for "H28C" ?
Ans: criterion not met

Q: And what about the variant "I30S" ?
Ans: criterion not met

Q: Please answer likewise for "P3I"
Ans: criterion met

Q: Param item: "T34M"
Ans: criterion met

Q: Entry to check: "L10Y"
Ans: criterion not met
